Entries with their measured Ki, system Human σ1 receptor (Homo sapiens, UniProt Q99720):

Sample answers from the record:
| COMPOUND | TARGET | TEST_READOUT | REPORTED_MEASUREMENT |
| --- | --- | --- | --- |
| CCC[C@H](c1nc2ccc(Cl)cc2c(=O)n1C)N1CCCN[C@@H](C)C1 | Human σ1 receptor (Homo sapiens, UniProt Q99720) | Ki | > 1000 nM |
| CCCC(c1nc2ccc(Br)c(Cl)c2c(=O)n1CC)N1CCCNCC1 (stereo not shown) | Human σ1 receptor (Homo sapiens, UniProt Q99720) | Ki | 500 to 1000 nM |
| CCC[C@@H](c1nc2ccc(Br)cc2c(=O)n1CC)N1CCN(C)C[C@H](CO)C1 | Human σ1 receptor (Homo sapiens, UniProt Q99720) | Ki | 500 to 1000 nM |

Sure, the documented Ki for CCC[C@@H](c1nc2ncc(Br)cc2c(=O)n1CC)N1CCN(C)C[C@H](C)C1 is > 1000 nM

* * *

Recorded Ki for the following compounds
TARGET: Human α2δ-1 subunit of Cav2.2 calcium channel (Homo sapiens)
TEST_SUMMARY: Human α2δ-1 subunit of Cav2.2 calcium channel assay ([3H]-gabapentin binding)
SETUP_CONDITIONS: binding to the α2δ-1 subunit of voltage-gated calcium channels, expressed as Ki class; + also covers inhibition between 1% and 50%

| COMPOUND | Ki |
| --- | --- |
| CCC[C@H](c1nc2ccc(Br)cc2c(=O)n1CC)N1CCCN(CC)CC1 [Example 153] | < 500 nM |
| CCC[C@H](c1nc2ccc(F)cc2c(=O)n1C(C)C)N1CCCN(CC)CC1 [Example 223] | > 5000 nM |
| CCCC(c1nc2ccc(Br)cc2c(=O)n1C)N1CCCN(C)CC1 (stereo not drawn) [Example 84] | 500 to 5000 nM |

Sure, the documented Ki for CCCC(c1nc2ccc(Br)c(C)c2c(=O)n1CC)N1CCCN(CC)CC1 (stereo not drawn) [Example 47] is 500 to 5000 nM

Sure, the documented Ki for CCC[C@H](c1nc2c(F)cc(Cl)cc2c(=O)n1CC)N1CCCN(C)CC1 [Example 234] is < 500 nM

Sure, the documented Ki for CCC[C@H](c1nc2cc(Cl)c(Cl)cc2c(=O)n1CC)N1CCNC[C@@H](C)C1 [Example 110] is < 500 nM

Sure, the documented Ki for CCC[C@H](c1nc2cc(F)c(Cl)cc2c(=O)n1CC)N1CCN(C)C[C@@H](C)C1 [Example 136] is < 500 nM

Sure, the documented Ki for CCCC(c1nc2ccc(Br)cc2c(=O)n1CC(=O)O)N1CCCN(C)CC1 (stereo not drawn) [Example 208] is > 5000 nM

Sure, the documented Ki for CCCC(c1nc2ccc(Br)c(Cl)c2c(=O)n1CC)N1CCCN(C)CC1 (stereo not drawn) [Example 56] is 500 to 5000 nM

Sure, the documented Ki for CCC[C@@H](c1nc2ncc(F)cc2c(=O)n1CC1CC1)N1CCN[C@H](C)CC1 [Example 193] is > 5000 nM

Sure, the documented Ki for CCC[C@H](c1nc2cc(F)c(F)cc2c(=O)n1CC)N1CCN[C@@H](C)CC1 [Example 242] is < 500 nM

Sure, the documented Ki for CCCC(c1nc2ncccc2c(=O)n1CC)N1CCCN(CC)CC1 (stereo not drawn) [Example 178] is < 500 nM

Sure, the documented Ki for CCC[C@@H](c1nc2cc(F)c(Br)cc2c(=O)n1CC)N1CCCN(C)CC1 [Example 156] is > 5000 nM

Sure, the documented Ki for CCCC(c1nc2cc(F)c(F)cc2c(=O)n1CC)N1CCCNCC1 (stereo not drawn) [Example 45] is < 500 nM

Sure, the documented Ki for CCC[C@H](c1nc2ccc(Br)cc2c(=O)n1CC)N1CCN(C)C[C@H](COC)C1 [Example 105] is 500 to 5000 nM

Sure, the documented Ki for CCC[C@H](c1nc2cc(Cl)c(Cl)cc2c(=O)n1CC)N1CCN(C)C[C@H](C)C1 [Example 131] is < 500 nM

* * *

Recorded Ki for the following molecules
TARGET: Human σ1 receptor (Homo sapiens)
Sequence (Q99720 whole entry): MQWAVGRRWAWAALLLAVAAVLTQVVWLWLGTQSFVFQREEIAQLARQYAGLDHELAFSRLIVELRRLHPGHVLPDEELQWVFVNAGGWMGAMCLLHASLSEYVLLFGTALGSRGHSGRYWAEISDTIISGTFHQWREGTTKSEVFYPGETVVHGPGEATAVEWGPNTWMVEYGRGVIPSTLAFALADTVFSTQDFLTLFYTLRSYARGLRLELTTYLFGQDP

Sample answers from the record:
| MOLECULE | TEST_READOUT | REPORTED_MEASUREMENT |
| --- | --- | --- |
| CCC[C@H](c1nc2cc(F)c(Br)cc2c(=O)n1CC)N1CCNC[C@H](C)C1 | Ki | 500 to 1000 nM |
| CCC[C@H](c1nc2ccc(C(F)(F)F)cc2c(=O)n1CC)N1CCN[C@H](C)CC1 | Ki | < 500 nM |
| CCCC(c1nc2ccc(Br)c(C)c2c(=O)n1CC)N1CCCNCC1 (stereo not drawn) | Ki | > 1000 nM |
| CCCC(c1nc2ccc(Cl)cc2c(=O)n1CC)N1CCCN(C)CC1 (stereo not drawn) | Ki | 500 to 1000 nM |

Sure, the documented Ki for CCC[C@@H](c1nc2ccc(Cl)cc2c(=O)n1CCC)N1CCCN(C)CC1 is > 1000 nM

* * *

TARGET: Human α2δ-1 subunit of Cav2.2 calcium channel (Homo sapiens, UniProt P54289)
Sequence (P54289 25-1103): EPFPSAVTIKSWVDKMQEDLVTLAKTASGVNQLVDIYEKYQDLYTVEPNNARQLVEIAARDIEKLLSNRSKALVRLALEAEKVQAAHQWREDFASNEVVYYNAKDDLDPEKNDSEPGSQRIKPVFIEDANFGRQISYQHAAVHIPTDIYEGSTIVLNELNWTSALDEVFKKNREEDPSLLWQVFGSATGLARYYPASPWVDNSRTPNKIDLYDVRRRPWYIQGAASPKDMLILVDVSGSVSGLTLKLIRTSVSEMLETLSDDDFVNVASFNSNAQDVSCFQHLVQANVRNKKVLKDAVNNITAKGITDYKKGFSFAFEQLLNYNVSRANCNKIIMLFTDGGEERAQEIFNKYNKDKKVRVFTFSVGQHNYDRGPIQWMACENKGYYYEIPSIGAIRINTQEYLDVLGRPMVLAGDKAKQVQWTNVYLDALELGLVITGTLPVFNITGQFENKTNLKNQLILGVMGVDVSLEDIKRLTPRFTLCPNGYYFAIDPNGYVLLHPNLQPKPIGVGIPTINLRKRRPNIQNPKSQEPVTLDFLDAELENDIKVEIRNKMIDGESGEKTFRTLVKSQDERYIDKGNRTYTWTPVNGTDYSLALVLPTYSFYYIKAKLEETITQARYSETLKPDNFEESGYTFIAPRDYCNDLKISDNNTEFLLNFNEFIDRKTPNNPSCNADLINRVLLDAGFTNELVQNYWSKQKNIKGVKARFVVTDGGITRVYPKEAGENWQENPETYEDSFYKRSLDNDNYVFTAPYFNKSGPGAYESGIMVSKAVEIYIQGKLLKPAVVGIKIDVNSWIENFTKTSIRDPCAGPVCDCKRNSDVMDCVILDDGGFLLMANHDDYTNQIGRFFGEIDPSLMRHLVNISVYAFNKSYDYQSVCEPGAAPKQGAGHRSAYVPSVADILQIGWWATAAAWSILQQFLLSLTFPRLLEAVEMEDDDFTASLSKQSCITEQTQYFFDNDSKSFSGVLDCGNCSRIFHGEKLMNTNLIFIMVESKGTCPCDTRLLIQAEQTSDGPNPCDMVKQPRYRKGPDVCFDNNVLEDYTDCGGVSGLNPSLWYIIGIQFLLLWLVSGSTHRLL
TEST_SUMMARY: Human α2δ-1 subunit of Cav2.2 calcium channel assay ([3H]-gabapentin binding)
SETUP_CONDITIONS: binding to the α2δ-1 subunit of voltage-gated calcium channels, expressed as Ki class; + also covers inhibition between 1% and 50%
Recorded Ki for the following molecules

Sample answers from the record:
| MOLECULE | Ki |
| --- | --- |
| CCCC(c1nc2ncccc2c(=O)n1CC)N1CCCNCC1 (centres unmarked) | 500 to 5000 nM |
| CCC[C@H](c1nc2ccc(F)c(F)c2c(=O)n1CC)N1CCCN(C)CC1 | < 500 nM |
| CCCC(c1nc2ccc(Br)c(Cl)c2c(=O)n1CC)N1CCCN(CC)CC1 (centres unmarked) | > 5000 nM |
| CCCC(c1nc2ccc(C)cc2c(=O)n1CC)N1CCCN(C)CC1 (centres unmarked) | < 500 nM |

Sure, the documented Ki for CCC[C@H](c1nc2cc(F)c(Cl)cc2c(=O)n1CC)N1CCNC[C@H](C)C1 is < 500 nM

* * *

TARGET: Human α2δ-1 subunit of Cav2.2 calcium channel (Homo sapiens, UniProt P54289)
TEST_SUMMARY: Human α2δ-1 subunit of Cav2.2 calcium channel assay ([3H]-gabapentin binding)
SETUP_CONDITIONS: binding to the α2δ-1 subunit of voltage-gated calcium channels, expressed as Ki class; + also covers inhibition between 1% and 50%
Procedure: Human α2δ-1 Subunit of Cav2.2 Calcium Channel Assay Human α2δ-1 enriched membranes (2.5 μg) were incubated with 15 nM of radiolabeled [^3H]-Gabapentin in assay buffer containing Hepes-KOH 10 mM. pH 7.4. NSB (non specific binding) was measured by adding 10 μM pregabalin. […] Filter plates were dried at 60° C. for 1 h and 30 μL of scintillation cocktail were added to each well before radioactivity reading. Readings were performed in a Trilux 1450 Microbeta radioactive counter (Perkin Elmer).
Recorded Ki for the following compounds

| COMPOUND | Ki |
| --- | --- |
| CCC[C@H](c1nc2ccc(Br)cc2c(=O)n1CC)N1CCN(C)C[C@@H](CO)C1 [Example 125] | 500 to 5000 nM |
| CCC[C@H](c1nc2ccc(F)cc2c(=O)n1CC(C)C)N1CCCN(CC)CC1 [Example 215] | < 500 nM |
| CCC[C@H](c1nc2ccc(Br)cc2c(=O)n1CC)N1CCCN(C)CC1 [Example 151] | < 500 nM |
| CCC[C@@H](c1nc2cc(F)c(Br)cc2c(=O)n1CC)N1CCCNCC1 [Example 158] | > 5000 nM |
| CCCC(c1nc2ccc(F)cc2c(=O)n1CC)N1CCCN(C)CC1 (stereo not drawn) [Example 21] | < 500 nM |
| CCC[C@H](c1nc2ncc(Br)cc2c(=O)n1CC)N1CCN(C)C[C@@H](C)C1 [Example 186] | < 500 nM |
| CCC[C@@H](c1nc2ncc(Br)cc2c(=O)n1CC)N1CCNC[C@H](C)C1 [Example 200] | > 5000 nM |
| CCCC(c1nc2cc(F)c(Cl)cc2c(=O)n1CC)N1CCCN(C)CC1 (stereo not drawn) [Example 89] | < 500 nM |

Consider now this further compound.
Sure, the documented Ki for CCC[C@@H](c1nc2ccc(Br)cc2c(=O)n1CC)N1CC[C@H](C)N(C)CC1 [Example 263] is > 5000 nM

* * *

TARGET: Human α2δ-1 subunit of Cav2.2 calcium channel (Homo sapiens)
TEST_SUMMARY: Human α2δ-1 subunit of Cav2.2 calcium channel assay ([3H]-gabapentin binding)
SETUP_CONDITIONS: binding to the α2δ-1 subunit of voltage-gated calcium channels, expressed as Ki class; + also covers inhibition between 1% and 50%
pKi: −log10 of the molar value.
Recorded pKi for the following compounds

Sample answers from the record:
| COMPOUND | pKi |
| --- | --- |
| CCCC(c1nc2cc(F)c(F)cc2c(=O)n1CC)N1CCCN(C)CC1 (stereo not drawn) | > 6.30 |
| CCCC(c1nc2cnc(C(F)(F)F)cc2c(=O)n1CC)N1CCCN(C)CC1 (stereo not drawn) | > 6.30 |
| CCC[C@H](c1nc2ccc(F)cc2c(=O)n1CC)N1CCN[C@@H](C)CC1 | > 6.30 |

Sure, the documented pKi for CCC[C@H](c1nc2cc(F)c(Cl)cc2c(=O)n1CC)N1CCN(C)C[C@H](C)C1 is > 6.30

Sure, the documented pKi for CCCC(c1nc2ccc(F)cc2c(=O)n1CC)C1CCCNCC1 (stereo not drawn) is > 6.30
